The entries below are paired with their reported Selectivity.
- TARGET_OR_SYSTEM: pre-pro-human insulin

Worked examples follow.
>  <PROTEIN>
trypsin variant SEQ ID NO: 16 (protein) IVGGYTCAANSIPYQVSLNSGSHRCGGSLINSQWVVSAAHCYKSRIQVRLGEHNIDVLEGNEQFINAAKIITHPNFNGNTLDNDIMLIKLSSPATLNSRVATVSLPRSCAAAGTECLISGWGNTGSSGSSYPSLLQCLKAPVLSDSSCKSSYPGQITGNMICVGFLEGGKDACQGDSGGPVVCNGQLQGIVSSGYGCAQKNKPGVYTKVCNYVNWIQQTIAAN

>  <RESULT_VALUE>
>90%

$$$$
>  <PROTEIN>
trypsin variant SEQ ID NO: 120 (protein) IVGGYTCAANSIPYQVSLNSGSHRCGGSLINSQWVVSAAHCYKSRIQVRLGEHNIDVLEGNEQFINAAKIITHPNFNGNTLDNDIMLIKLSSPATLNSRVATVSLPRSCAAAGTECLISGWGNTPSSGSSYPSLLQCLKAPVLSDSSCKSSYPGQITGNMICVGFLEGGKDACQGDSGGPVVCNGQLQGIVSSGYGCAQKNKPGVYTKVCNYVNWIQQTIAAN

>  <RESULT_VALUE>
1.4%

$$$$
>  <PROTEIN>
trypsin variant SEQ ID NO: 31 (protein) IVGGYTCAANSIPYQVSLNSGSHQCGGSLINSQWVVSAAHCYKSRIQVRLGEHNIDVLEGNEQFINAAKIITHPNFNGNTLDNDIMLIKLSSPATLNSRVATVSLPRSCAAAGTECLISGWGNTKSSGSSYPSLLQCLKAPVLSDSSCKSSYPGQITGNMICVGFLEGGKDACQGDSGGPVVCNGQLQGIVSSGYGCAQKNKPGVYTKVCNYVNWIQQTIAAN

>  <RESULT_VALUE>
>62.1%

$$$$

The recorded Selectivity for entry trypsin variant SEQ ID NO: 119 (protein) IVGGYTCAANSIPYQVSLNSGSHRCGGSLINSQWVVSAAHCYKPRIQVRLGEHNIHVLEGNEQFINAAKIITHPNFNGNTLDNDIMLIKLSSPATLNSAVATVSLPTSCAAAGTECLISGWGNTASSGSSMPSLLQCLKAPVLSDSSCKSSYPGQITGNMICVGFLEGGKDACQGDSGGPVVCNGQLQGIVSSGYGCAQKNKPGVYTKVCNYVNWIQQTIAAN equals >90%

The recorded Selectivity for entry trypsin variant SEQ ID NO: 25 (protein) IVGGYTCAANSIPYQVSLNSGSHRCGGSLINSQWVVSAAHCYKSRIQVRLGEHNIDVLEGNEQFINAAKIITHPNFNGNTLDNDIMLIKLSSPATLNSRVATVSLPRSCAAAGTECLISGWGNTKSSGSSYPSLLQCLKAPVLSDSSCKSSYPGQITGNMICVGFLEGGADACQGDSGGPVVCNGQLQGIVSSGYGCAQKNKPGVYTKVCNYVNWIQQTIAAN equals >90%
